Data provenance: ChEMBL document CHEMBL1250427

- Test summary: Drug uptake in LPS-stimulated CD1 mouse brainstem at 5 to 7 mBq, iv administered 5 days post LPS challenge
- Assay type: ADME, organism-based
- Experimental conditions: read-out: Drug uptake
Metric: tissue uptake at 120 h (%ID/g)
Give the number; %ID/g is assumed, so skip it.

Task: For `Cc1s/c(=N\C(=O)C2C(C)(C)C2(C)C)n(CCO[11CH3])c1C` , what is its reported tissue uptake at 120 h?
Output: 2.1
